Measured values drawn from the supplement of paper PMC10567573 for this set.

Please provide measured protein stability index for the entries that follow.
B1: INTS3 (parent)
chain: AQLQALRQKEVDFCISLLRERFME

variants of: B1; assay: protein stability index of a GFP-peptide fusion (GPS, HEK-293T) (PSI 1-6); higher = more stable; settings: c terminus: a fixed tail appended;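 also: lentivirally expressed fusions sorted by FACS into six bins by GFP to DsRed ratio, PSI derived from sequencing read proportions per bin multiplied by bin number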
Please state the value as a number alone, without comment.

// query Recall and state the measured protein stability index for Q8T .
// result 3.06

// query Recall and state the measured protein stability index for L3K .
// result 1.5

// query Recall and state the measured protein stability index for E10G .
// result 2.1

// query Recall and state the measured protein stability index for F13N .
// result 2.37

// query Recall and state the measured protein stability index for R7V .
// result 1.74

// query Recall and state the measured protein stability index for L17Q .
// result 2.45

// query Recall and state the measured protein stability index for C14E .
// result 1.75

// query Recall and state the measured protein stability index for C14D .
// result 2.03

// query Recall and state the measured protein stability index for F13P .
// result 2.3

// query Recall and state the measured protein stability index for I15E .
// result 2.34

// query Recall and state the measured protein stability index for Q4G .
// result 2.13

// query Recall and state the measured protein stability index for A5I .
// result 2.07

// query Recall and state the measured protein stability index for M23P .
// result 1.79

// query Recall and state the measured protein stability index for L6G .
// result 1.98

// query Recall and state the measured protein stability index for L6M .
// result 2.44

// query Recall and state the measured protein stability index for D12L .
// result 2.47

// query Recall and state the measured protein stability index for D12T .
// result 2.66

// query Recall and state the measured protein stability index for M23V .
// result 5.11

// query Recall and state the measured protein stability index for I15H .
// result 2.37

// query Recall and state the measured protein stability index for D12S .
// result 3.29

// query Recall and state the measured protein stability index for K9R .
// result 2.32

// query Recall and state the measured protein stability index for R7S .
// result 2.93

// query Recall and state the measured protein stability index for A1R .
// result 2.08

// query Recall and state the measured protein stability index for E24V .
// result 2.95

// query Recall and state the measured protein stability index for F13K .
// result 2.9

// query Recall and state the measured protein stability index for Q4C .
// result 1.93

// query Recall and state the measured protein stability index for L17H .
// result 1.65

// query Recall and state the measured protein stability index for R7L .
// result 2.24

// query Recall and state the measured protein stability index for Q4F .
// result 1.83

// query Recall and state the measured protein stability index for S16D .
// result 2.09

// query Recall and state the measured protein stability index for E24P .
// result 1.31

// query Recall and state the measured protein stability index for Q4V .
// result 2.98

// query Recall and state the measured protein stability index for D12P .
// result 2.05

// query Recall and state the measured protein stability index for R21K .
// result 2.5

// query Recall and state the measured protein stability index for E10D .
// result 1.04

// query Recall and state the measured protein stability index for A1G .
// result 2.93

// query Recall and state the measured protein stability index for A5T .
// result 1.65

// query Recall and state the measured protein stability index for E10I .
// result 2.25

// query Recall and state the measured protein stability index for L18D .
// result 2.38

// query Recall and state the measured protein stability index for Q8S .
// result 3.06

// query Recall and state the measured protein stability index for K9Q .
// result 3.5

// query Recall and state the measured protein stability index for R21W .
// result 2.68

// query Recall and state the measured protein stability index for F13T .
// result 2.44

// query Recall and state the measured protein stability index for V11S .
// result 1.67

// query Recall and state the measured protein stability index for L18E .
// result 2.57

// query Recall and state the measured protein stability index for R21E .
// result 2.1

// query Recall and state the measured protein stability index for K9N .
// result 1.93

// query Recall and state the measured protein stability index for A1Q .
// result 2.43

// query Recall and state the measured protein stability index for C14T .
// result 1.68

// query Recall and state the measured protein stability index for E20R .
// result 2.49

// query Recall and state the measured protein stability index for A5D .
// result 2.68

// query Recall and state the measured protein stability index for Q8N .
// result 2.37

// query Recall and state the measured protein stability index for R21H .
// result 2.91

// query Recall and state the measured protein stability index for L6A .
// result 2.13

// query Recall and state the measured protein stability index for Q8Y .
// result 4.01

// query Recall and state the measured protein stability index for Q4H .
// result 3.32

// query Recall and state the measured protein stability index for V11A .
// result 2.23

// query Recall and state the measured protein stability index for C14S .
// result 2.02

// query Recall and state the measured protein stability index for A1K .
// result 2.62

// query Recall and state the measured protein stability index for A5N .
// result 2.61

// query Recall and state the measured protein stability index for I15K .
// result 2.17

// query Recall and state the measured protein stability index for E10R .
// result 2.09

// query Recall and state the measured protein stability index for V11K .
// result 1.7

// query Recall and state the measured protein stability index for V11E .
// result 2.54

// query Recall and state the measured protein stability index for E20M .
// result 2.92

// query Recall and state the measured protein stability index for Q4D .
// result 2.04

// query Recall and state the measured protein stability index for L18P .
// result 2.04
